# protocolDescription: Binding affinity to HIV-1 FSS RNA assessed as dissociation constant by SPR assay
# Set-up: species or system Human immunodeficiency virus 1
The entries below are paired with their reported pKd.
Please treat pKd as minus the base-10 logarithm of the molar concentration.

# structureAsSmiles, observedValue
data = [
    ("CCc1nc2ccccc2cc1C(=O)N(C)[C@@H](CCn1cc(C[C@@H](C(=O)N2CCC[C@H]2C(=O)N(C)[C@@H](Cc2ccccc2)C(N)=O)N(C)C(=O)c2cc3ccccc3nc2CC)nn1)C(=O)N1CCC[C@H]1C(=O)N(C)[C@@H](Cc1ccccc1)C(N)=O", 4.71),
]

Data request: Which value of pKd has been reported for `CCc1nc2ccccc2cc1C(=O)N(C)[C@@H](CCn1cc(C[C@@H](C(=O)N2C[C@H](O)C[C@H]2C(=O)N(C)[C@@H](Cc2ccccc2)C(=O)NCCCN)N(C)C(=O)c2cc3ccccc3nc2CC)nn1)C(=O)N1C[C@H](O)C[C@H]1C(=O)N(C)[C@@H](Cc1ccccc1)C(=O)NCCCN` in the records?
Data returned: 6.23

Data request: Tell me the measured pKd of `CCc1nc2cc3ccccc3cc2cc1C(=O)N[C@@H](C/C=C\C[C@H](NC(=O)c1cc2cc3ccccc3cc2nc1CC)C(=O)N1CCC[C@H]1C(=O)N[C@@H](Cc1ccccc1)C(=O)NCCCN)C(=O)N1CCC[C@H]1C(=O)N[C@@H](Cc1ccccc1)C(=O)NCCCN` , please.
Data returned: 6.99

Data request: # lookup: pKd of `CN(C(=O)c1cnc2ccccc2c1)[C@@H](CCn1cc(C[C@@H](C(=O)N2C[C@H](O)C[C@H]2C(=O)N(C)[C@@H](Cc2ccccc2)C(=O)NCCCN)N(C)C(=O)c2cnc3ccccc3c2)nn1)C(=O)N1C[C@H](O)C[C@H]1C(=O)N(C)[C@@H](Cc1ccccc1)C(=O)NCCCN`
Data returned: 6.96

Data request: Field request: pKd | item: `CCc1nc2ccccc2cc1C(=O)N(C)[C@@H](CCn1cc(C[C@@H](C(=O)N2CCC[C@H]2C(=O)N(C)[C@@H](Cc2ccccc2)C(=O)NCCCN)N(C)C(=O)c2cc3ccccc3nc2CC)nn1)C(=O)N1CCC[C@H]1C(=O)N(C)[C@@H](Cc1ccccc1)C(=O)NCCCN`
Data returned: 6.30
